Recorded values, source patent US20210388087A1.

Give measured KD ratio to GLS3000 for each item. Keep answers brief.
# experimental target: T1, CD3 epsilon homodimer protein (UniProt P07766 23-126)
# T1 construct: also called CD3 (CD3 epsilon)
# T1 sequence (P07766 23-126): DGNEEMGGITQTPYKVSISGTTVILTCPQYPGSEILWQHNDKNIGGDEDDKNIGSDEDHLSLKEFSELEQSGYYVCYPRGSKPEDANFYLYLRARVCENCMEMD
# method: SPR, antibody over immobilised CD3e homodimer;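 further: SPR at 25 °C with CD3 epsilon homodimer amine-coupled to a CM4 sensor chip and antibody flowed over as analyte in HBS-EP+ running buffer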
Returns: the value as a bare number; no unit string appended.

Problem: What value of measured KD ratio to GLS3000 is listed for CE115HA000/GLS3000 G89W (antibody, IgG1, name in Kabat numbering, V domains shown, one-arm IgG1) VH: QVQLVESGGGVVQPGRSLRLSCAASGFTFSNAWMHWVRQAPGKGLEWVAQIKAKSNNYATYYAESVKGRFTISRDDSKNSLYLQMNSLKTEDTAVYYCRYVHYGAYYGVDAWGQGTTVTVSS VL: DIVMTQSPLSLPVTPGEPASISCRSSQSLVHSNRNTYLHWYQQKPGQAPRLLIYKVSNRFSGVPDRFSGSGSGTDFTLKISRVEAEDVGVYYCWQGTQVPYTFGQGTKLEIK ?
Solution: 2.2

Problem: Quick one: KD ratio to GLS3000 of CE115HA000/GLS3000 G89T (antibody, IgG1, name in Kabat numbering, V domains shown, one-arm IgG1) VH: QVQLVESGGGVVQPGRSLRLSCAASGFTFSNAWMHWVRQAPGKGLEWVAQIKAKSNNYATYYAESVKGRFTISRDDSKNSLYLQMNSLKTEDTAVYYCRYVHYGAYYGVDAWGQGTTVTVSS VL: DIVMTQSPLSLPVTPGEPASISCRSSQSLVHSNRNTYLHWYQQKPGQAPRLLIYKVSNRFSGVPDRFSGSGSGTDFTLKISRVEAEDVGVYYCTQGTQVPYTFGQGTKLEIK ?
Solution: 1.1

Problem: Look up KD ratio to GLS3000 for this binder: CE115HA000/GLS3000 H34D (antibody, IgG1, name in Kabat numbering, V domains shown, one-arm IgG1) VH: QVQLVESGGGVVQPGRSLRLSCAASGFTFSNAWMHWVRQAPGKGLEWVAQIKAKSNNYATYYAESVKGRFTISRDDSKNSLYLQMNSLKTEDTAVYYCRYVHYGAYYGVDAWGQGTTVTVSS VL: DIVMTQSPLSLPVTPGEPASISCRSSQSLVHSNRNTYLDWYQQKPGQAPRLLIYKVSNRFSGVPDRFSGSGSGTDFTLKISRVEAEDVGVYYCGQGTQVPYTFGQGTKLEIK
Solution: 2100

Problem: Can you share its KD ratio to GLS3000? I mean this binder: CE115HA000/GLS3000 R29Y (antibody, IgG1, name in Kabat numbering, V domains shown, one-arm IgG1) VH: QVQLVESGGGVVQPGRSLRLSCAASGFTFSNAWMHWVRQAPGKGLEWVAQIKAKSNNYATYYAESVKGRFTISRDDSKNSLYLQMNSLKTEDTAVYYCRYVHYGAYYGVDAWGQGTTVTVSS VL: DIVMTQSPLSLPVTPGEPASISCRSSQSLVHSNYNTYLHWYQQKPGQAPRLLIYKVSNRFSGVPDRFSGSGSGTDFTLKISRVEAEDVGVYYCGQGTQVPYTFGQGTKLEIK
Solution: 1.08

Problem: What value of KD ratio to GLS3000 has been reported for the following binder? CE115HA000/GLS3000 H27dV (antibody, IgG1, name in Kabat numbering, V domains shown, one-arm IgG1) VH: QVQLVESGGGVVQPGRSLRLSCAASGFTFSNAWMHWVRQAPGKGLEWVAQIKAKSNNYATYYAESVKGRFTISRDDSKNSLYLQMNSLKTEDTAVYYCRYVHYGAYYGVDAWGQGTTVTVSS VL: DIVMTQSPLSLPVTPGEPASISCRSSQSLVVSNRNTYLHWYQQKPGQAPRLLIYKVSNRFSGVPDRFSGSGSGTDFTLKISRVEAEDVGVYYCGQGTQVPYTFGQGTKLEIK
Solution: 354

Problem: I would be grateful if you could share the reported KD ratio to GLS3000 for CE115HA000/GLS3000 G89Q (antibody, IgG1, name in Kabat numbering, V domains shown, one-arm IgG1) VH: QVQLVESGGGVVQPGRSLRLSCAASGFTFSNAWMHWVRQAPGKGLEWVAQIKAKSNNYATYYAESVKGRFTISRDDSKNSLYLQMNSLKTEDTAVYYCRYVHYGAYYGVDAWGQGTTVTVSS VL: DIVMTQSPLSLPVTPGEPASISCRSSQSLVHSNRNTYLHWYQQKPGQAPRLLIYKVSNRFSGVPDRFSGSGSGTDFTLKISRVEAEDVGVYYCQQGTQVPYTFGQGTKLEIK .
Solution: 2.11

Problem: What value of KD ratio to GLS3000 has been recorded for this entry: CE115HA000/GLS3000 N30Q (antibody, IgG1, name in Kabat numbering, V domains shown, one-arm IgG1) VH: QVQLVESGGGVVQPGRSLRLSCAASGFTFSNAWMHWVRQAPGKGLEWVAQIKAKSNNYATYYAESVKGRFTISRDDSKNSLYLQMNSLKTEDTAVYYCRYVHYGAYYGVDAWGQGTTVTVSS VL: DIVMTQSPLSLPVTPGEPASISCRSSQSLVHSNRQTYLHWYQQKPGQAPRLLIYKVSNRFSGVPDRFSGSGSGTDFTLKISRVEAEDVGVYYCGQGTQVPYTFGQGTKLEIK
Solution: 1

Problem: KD ratio to GLS3000 lookup needed for CE115HA000/GLS3000 H27dA (antibody, IgG1, name in Kabat numbering, V domains shown, one-arm IgG1) VH: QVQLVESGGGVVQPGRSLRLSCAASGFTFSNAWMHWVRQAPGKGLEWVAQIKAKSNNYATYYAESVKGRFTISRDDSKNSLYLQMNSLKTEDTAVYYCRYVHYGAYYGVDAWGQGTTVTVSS VL: DIVMTQSPLSLPVTPGEPASISCRSSQSLVASNRNTYLHWYQQKPGQAPRLLIYKVSNRFSGVPDRFSGSGSGTDFTLKISRVEAEDVGVYYCGQGTQVPYTFGQGTKLEIK , thanks.
Solution: 2.57

Problem: Any idea what KD ratio to GLS3000 was measured for CE115HA000/GLS3000 F55V (antibody, IgG1, name in Kabat numbering, V domains shown, one-arm IgG1) VH: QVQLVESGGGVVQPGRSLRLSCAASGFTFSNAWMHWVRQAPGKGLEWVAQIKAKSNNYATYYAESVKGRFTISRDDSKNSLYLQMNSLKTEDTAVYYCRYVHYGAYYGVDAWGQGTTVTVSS VL: DIVMTQSPLSLPVTPGEPASISCRSSQSLVHSNRNTYLHWYQQKPGQAPRLLIYKVSNRVSGVPDRFSGSGSGTDFTLKISRVEAEDVGVYYCGQGTQVPYTFGQGTKLEIK ?
Solution: 1.12

Problem: Fill in: KD ratio to GLS3000 of CE115HA000/GLS3000 S52Y (antibody, IgG1, name in Kabat numbering, V domains shown, one-arm IgG1) VH: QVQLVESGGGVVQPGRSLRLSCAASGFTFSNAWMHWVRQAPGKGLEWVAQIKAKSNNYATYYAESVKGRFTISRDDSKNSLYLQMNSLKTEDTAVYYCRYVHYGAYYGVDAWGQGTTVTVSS VL: DIVMTQSPLSLPVTPGEPASISCRSSQSLVHSNRNTYLHWYQQKPGQAPRLLIYKVYNRFSGVPDRFSGSGSGTDFTLKISRVEAEDVGVYYCGQGTQVPYTFGQGTKLEIK is ___
Solution: 1.02
